All figures here come from patent US20240301052A1.

- tested target: T1, human SLC34A2 (human, UniProt O95436 1-690)
- T1 construct: whole, on cells; also called human solute carrier 34 A2; NaPi2b
- T1 sequence (looked up): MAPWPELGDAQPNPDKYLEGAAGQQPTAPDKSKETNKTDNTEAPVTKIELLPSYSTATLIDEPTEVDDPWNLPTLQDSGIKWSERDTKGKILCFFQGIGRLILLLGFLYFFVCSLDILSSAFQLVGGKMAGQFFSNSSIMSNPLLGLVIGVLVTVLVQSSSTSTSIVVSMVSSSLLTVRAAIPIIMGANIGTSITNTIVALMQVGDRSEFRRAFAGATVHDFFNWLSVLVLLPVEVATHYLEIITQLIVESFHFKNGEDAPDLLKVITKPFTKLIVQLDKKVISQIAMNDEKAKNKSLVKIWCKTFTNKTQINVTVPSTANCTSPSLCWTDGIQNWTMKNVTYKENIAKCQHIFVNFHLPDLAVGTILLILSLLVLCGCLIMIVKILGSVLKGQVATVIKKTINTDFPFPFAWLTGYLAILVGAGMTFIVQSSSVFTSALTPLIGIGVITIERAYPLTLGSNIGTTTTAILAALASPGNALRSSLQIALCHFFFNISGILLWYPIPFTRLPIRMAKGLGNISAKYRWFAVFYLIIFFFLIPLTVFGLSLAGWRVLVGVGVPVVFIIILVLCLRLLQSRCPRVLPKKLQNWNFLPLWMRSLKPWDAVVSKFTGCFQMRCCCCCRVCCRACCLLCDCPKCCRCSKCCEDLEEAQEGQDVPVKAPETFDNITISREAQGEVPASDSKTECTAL
- test protocol: FACS, HEK293/human SLC34A2 cells
pEC50: −log10 of the molar value.
Recorded pEC50 for the following binders
readout kind: pEC50

[
  {
    "binder": "30H9B8F9.p1.z5 hIgG1 (antibody, V domains shown, humanized hIgG1) VH: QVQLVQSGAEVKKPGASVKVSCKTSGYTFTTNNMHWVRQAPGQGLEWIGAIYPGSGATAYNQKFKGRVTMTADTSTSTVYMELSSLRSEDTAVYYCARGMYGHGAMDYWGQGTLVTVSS VL: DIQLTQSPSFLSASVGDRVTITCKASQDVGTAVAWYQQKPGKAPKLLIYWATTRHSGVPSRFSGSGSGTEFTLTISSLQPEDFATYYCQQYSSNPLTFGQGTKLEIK",
    "readout kind": "pEC50",
    "readout number": 8.81
  },
  {
    "binder": "63A11D5B4.p1.z15 hIgG1 (antibody, V domains shown, humanized hIgG1) VH: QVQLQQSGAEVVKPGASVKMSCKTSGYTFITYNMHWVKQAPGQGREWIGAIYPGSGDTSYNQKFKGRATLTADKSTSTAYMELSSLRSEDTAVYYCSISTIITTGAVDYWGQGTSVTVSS VL: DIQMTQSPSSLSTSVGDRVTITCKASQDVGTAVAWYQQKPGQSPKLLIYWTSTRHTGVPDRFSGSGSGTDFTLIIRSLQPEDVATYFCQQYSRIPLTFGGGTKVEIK",
    "readout kind": "pEC50",
    "readout number": 8.15
  },
  {
    "binder": "xi63A11D5B4 hIgG1 (antibody, V domains shown, chimeric, hIgG1) VH: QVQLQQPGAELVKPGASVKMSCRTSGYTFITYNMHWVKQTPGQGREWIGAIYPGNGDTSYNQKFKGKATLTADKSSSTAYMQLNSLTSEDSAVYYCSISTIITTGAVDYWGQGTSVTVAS VL: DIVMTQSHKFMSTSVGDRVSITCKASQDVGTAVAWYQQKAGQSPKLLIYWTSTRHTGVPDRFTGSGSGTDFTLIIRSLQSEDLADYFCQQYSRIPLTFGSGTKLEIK",
    "readout kind": "pEC50",
    "readout number": 8.28
  },
  {
    "binder": "63A11D5B4.p1.z9 hIgG1 (antibody, V domains shown, humanized hIgG1) VH: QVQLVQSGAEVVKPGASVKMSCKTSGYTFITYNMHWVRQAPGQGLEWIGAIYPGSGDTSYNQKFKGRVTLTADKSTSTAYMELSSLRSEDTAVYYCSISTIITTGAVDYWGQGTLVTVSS VL: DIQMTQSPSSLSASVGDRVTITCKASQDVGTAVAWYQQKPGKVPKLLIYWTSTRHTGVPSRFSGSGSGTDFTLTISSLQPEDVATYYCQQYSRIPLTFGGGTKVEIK",
    "readout kind": "pEC50",
    "readout number": 8.26
  }
]
